Procedure details: Cmax in Ugandan children patient with uncomplicated malaria at 10 mg/kg, perorally qd on first 2 days and then 5 mg/kg, perorally on third day co-administered with artesunate at 4 mg/kg, perorally bid for 3 days
Type: ADME, organism-based
Parameters: dose 10 mg/kg, route oral
Condition parameters: human, in vivo, po
Property label: Cmax (ng/mL)
Write down the numeric answer in ng/mL and omit the unit.

Exam item: For CCN(CC)Cc1cc(Nc2ccnc3cc(Cl)ccc23)ccc1O.Cl , write its Cmax.
Marked response: 5.2

====

Procedure details: AUC (0-infinity) in healthy human adult at 600 mg administered as single dose
Format: ADME, organism-based
Design: dose 600 mg, time infinity
Condition parameters: plasma
Property label: AUC(0-inf) (ng·h/mL)
Write down the numeric answer in ng·h/mL and omit the unit.

Exam item: For CCN(CC)Cc1cc(Nc2ccnc3cc(Cl)ccc23)ccc1O.Cl , write its AUC(0-inf).
Marked response: 154

====

Procedure details: AUC (0-infinity) in Ugandan children patient with uncomplicated malaria at 10 mg/kg, perorally qd on first 2 days and then 5 mg/kg, perorally on third day co-administered with artesunate at 4 mg/kg, perorally bid for 3 days
Format: ADME, organism-based
Design: dose 10 mg/kg, time infinity, route oral
Condition parameters: human, plasma, po
Property label: AUC(0-inf) (µg·h/mL)
Write down the numeric answer in µg·h/mL and omit the unit.

Exam item: For CCN(CC)Cc1cc(Nc2ccnc3cc(Cl)ccc23)ccc1O.Cl , write its AUC(0-inf).
Marked response: 0.0393

====

Procedure details: Cmax in Ugandan children patient with uncomplicated malaria at 4 mg/kg, perorally […] for 3 days co-administered with amodiaquine at 10 mg/kg, perorally qd on first 2 days and then 5 mg/kg, perorally on third day
Type: ADME, organism-based
Set-up: dose 4 mg/kg, route oral
Condition parameters: human, in vivo, po
Property label: Cmax (ng/mL)
Write down the numeric answer in ng/mL and omit the unit.

Exam item: For C[C@H]1[C@H](OC(=O)CCC(=O)O)O[C@@H]2O[C@@]3(C)CC[C@H]4[C@H](C)CC[C@@H]1[C@@]24OO3 [ARTESUNATE] , write its Cmax.
Marked response: 51.3

====

Procedure details: Half life in Ugandan children patient with uncomplicated malaria administered twice daily for 3 days as 20/120 mg tablets containing artemether-lumefantrine combination
Format: ADME, organism-based
Condition parameters: human, in vivo, po
Property label: half-life

{"Compound": "CO[C@H]1O[C@@H]2O[C@@]3(C)CC[C@H]4[C@H](C)CC[C@@H]([C@H]1C)[C@@]24OO3", "Observed measurement": "3.9 h"}

Please find the next compound below.
Exam item: For CCCCN(CCCC)CC(O)c1cc(Cl)cc2c1-c1ccc(Cl)cc1/C2=C/c1ccc(Cl)cc1 (configuration not stated) , write its half-life.
Marked response: 32.7 h

====

Procedure details: Half life in Ugandan children patient with uncomplicated malaria at 10 mg/kg, perorally qd on first 2 days and then 5 mg/kg, perorally on third day co-administered with artesunate at 4 mg/kg, perorally bid for 3 days
Format: ADME, organism-based
Condition parameters: human, in vivo, po
Property label: half-life (h)
Write down the numeric answer in h and omit the unit.

Exam item: For CCN(CC)Cc1cc(Nc2ccnc3cc(Cl)ccc23)ccc1O.Cl , write its half-life.
Marked response: 3.3

====

Procedure details: AUC (0-infinity) in Ugandan children patient with uncomplicated malaria at 4 mg/kg, perorally […] for 3 days co-administered with amodiaquine at 10 mg/kg, perorally qd on first 2 days and then 5 mg/kg, perorally on third day
Type: ADME, organism-based
Set-up: dose 4 mg/kg, route oral, time infinity
Condition parameters: human, plasma, po
Property label: AUC(0-inf) (ng·h/mL)
Write down the numeric answer in ng·h/mL and omit the unit.

Exam item: For C[C@H]1[C@H](OC(=O)CCC(=O)O)O[C@@H]2O[C@@]3(C)CC[C@H]4[C@H](C)CC[C@@H]1[C@@]24OO3 [ARTESUNATE] , write its AUC(0-inf).
Marked response: 113
